The reported numbers originate from paper PMC13334471.

Target: Rabbit cardiac α-tropomyosin (rabbit, UniProt P58772 1-284)
Assay: SPR
Listed binders paired with reported kon
observed property: kon (M⁻¹ s⁻¹)

binder="SKTRGKAKVTGCWK (peptide, UniProt P45379-6 275-288, looked up) [Human cTnT-C14 peptide containing HCM-linked mutation R286C]" observed_property=kon result_value=3110
binder="SKTRGKAKVTGRWK (peptide, UniProt P45379-6 275-288, looked up)" observed_property=kon result_value=5910
binder="SKTCGKAKVTGRWK (peptide, UniProt P45379-6 275-288, looked up) [Human cTnT-C14 peptide containing HCM-linked mutation R278C]" observed_property=kon result_value=2500
binder="SKTRGNAKVTGRWK (peptide, UniProt P45379-6 275-288, looked up) [Human cTnT-C14 peptide containing HCM-linked mutation K280N]" observed_property=kon result_value=6600
